Data provenance is patent US20260207755A1.

- systemTested: 6×His tagged recombinant IDO1 protein (Homo sapiens)
- Sequence (P14902 whole entry): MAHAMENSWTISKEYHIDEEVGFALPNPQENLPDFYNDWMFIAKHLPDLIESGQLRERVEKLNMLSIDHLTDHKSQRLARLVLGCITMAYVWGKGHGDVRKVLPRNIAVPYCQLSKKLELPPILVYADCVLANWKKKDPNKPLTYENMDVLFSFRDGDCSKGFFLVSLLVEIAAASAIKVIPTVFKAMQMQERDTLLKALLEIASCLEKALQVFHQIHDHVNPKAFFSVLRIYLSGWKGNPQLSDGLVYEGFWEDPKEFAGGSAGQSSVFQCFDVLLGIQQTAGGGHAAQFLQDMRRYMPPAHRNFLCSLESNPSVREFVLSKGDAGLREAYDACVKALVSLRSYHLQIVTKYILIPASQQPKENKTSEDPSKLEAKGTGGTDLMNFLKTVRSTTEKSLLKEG
- assayRemarks: BLI binary binding of IDO1-PROTAC to immobilized IDO1
- testSettings: IDO1 on Ni-NTA sensors, PBS+0.5% DMSO pH 7.4, 30° C
pKd: −log10 of the molar value.
quantityMeasured: pKd

C[C@@H](C(=O)Nc1cccc(OC2CCN(C(=O)CN3CCC(CN4CCN(c5ccc6c(c5)C(=O)N(C5CCC(=O)NC5=O)C6=O)CC4)CC3)CC2)c1)[C@H]1CC[C@@H](c2ccnc3ccc(F)cc32)CC1 (some centres unmarked) [NU227327] : 6.43
C[C@@H](C(=O)Nc1ccc(Cl)c(OC2CCN(C(=O)CN3CCC(CN4CCN(c5ccc6c(c5)C(=O)N(C5CCC(=O)NC5=O)C6=O)CC4)CC3)CC2)c1)[C@H]1CC[C@@H](c2ccnc3ccc(F)cc32)CC1 (some centres unmarked) [NU227164] : 6.37

[1] C[C@@H](C(=O)Nc1ccc(Cl)c(OC2CCN(C(=O)CN3CCC(N4CCN(c5ccc6c(c5)C(=O)N(C5CCC(=O)NC5=O)C6=O)CC4)CC3)CC2)c1)[C@H]1CC[C@@H](c2ccnc3ccc(F)cc32)CC1 (some centres unmarked) [NU227168]
[2] C[C@@H](C(=O)Nc1ccc(Cl)c(OC2CCN(C(=O)C3CCN(C[C@H]4CC[C@H](Nc5ccc6c(c5)C(=O)N(C5CCC(=O)NC5=O)C6=O)CC4)CC3)CC2)c1)[C@H]1CC[C@@H](c2ccnc3ccc(F)cc32)CC1 (some centres unmarked) [NU227199]
Which entry shows the lesser value of pKd here, 1 or 2 ? Use the label to indicate which entry you chose.
2

###

- systemTested: IDO1-PROTAC-CRBN ternary complex (Homo sapiens, UniProt P14902+Q96SW2)
- Construct: Sino Biological (CRBN) 81031 (IDO1); none given for CRBN
- Sequence (P14902 whole entry): as above
- Sequence (Q96SW2 whole entry): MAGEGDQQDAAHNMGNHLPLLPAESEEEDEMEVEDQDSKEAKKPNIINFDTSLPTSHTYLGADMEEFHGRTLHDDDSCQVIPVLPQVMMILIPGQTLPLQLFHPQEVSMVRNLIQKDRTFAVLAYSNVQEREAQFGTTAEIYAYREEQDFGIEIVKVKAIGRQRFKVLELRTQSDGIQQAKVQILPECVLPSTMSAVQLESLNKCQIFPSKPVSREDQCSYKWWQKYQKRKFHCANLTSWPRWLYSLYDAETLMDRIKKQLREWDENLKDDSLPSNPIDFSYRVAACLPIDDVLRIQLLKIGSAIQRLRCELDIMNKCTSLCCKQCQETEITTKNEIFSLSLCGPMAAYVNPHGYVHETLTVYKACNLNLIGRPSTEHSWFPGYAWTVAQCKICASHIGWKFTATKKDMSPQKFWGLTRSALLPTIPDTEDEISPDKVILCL
- assayRemarks: BLI IDO1-PROTAC-CRBN ternary complex
- testSettings: IDO1 on NiNTA sensors, PROTAC pre-incubated with 25 molar excess of CRBN, 1:1 kinetic model
quantityMeasured: Kd (nM)

Solved cases (3 shown):
C[C@@H](C(=O)Nc1ccc(Cl)c(OC2CCN(C(=O)C3CCN(C[C@H]4CC[C@H](Nc5ccc6c(c5)C(=O)N(C5CCC(=O)NC5=O)C6=O)CC4)CC3)CC2)c1)[C@H]1CC[C@@H](c2ccnc3ccc(F)cc32)CC1 (some centres unmarked) : 689
C[C@@H](C(=O)Nc1cccc(OC2CCN(C(=O)CN3CCC(CN4CCN(c5ccc6c(c5)C(=O)N(C5CCC(=O)NC5=O)C6=O)CC4)CC3)CC2)c1)[C@H]1CC[C@@H](c2ccnc3ccc(F)cc32)CC1 (some centres unmarked) : 997
C[C@@H](C(=O)Nc1cccc(OC2CCN(C(=O)CN3CCC(N4CCN(c5ccc6c(c5)C(=O)N(C5CCC(=O)NC5=O)C6=O)CC4)CC3)CC2)c1)[C@H]1CC[C@@H](c2ccnc3ccc(F)cc32)CC1 (some centres unmarked) : 321

[A] C[C@@H](C(=O)Nc1ccc(Cl)c(OC2CCN(C(=O)CN3CCC(CN4CCN(c5ccc6c(c5)C(=O)N(C5CCC(=O)NC5=O)C6=O)CC4)CC3)CC2)c1)[C@H]1CC[C@@H](c2ccnc3ccc(F)cc32)CC1 (some centres unmarked)
[B] C[C@@H](C(=O)Nc1ccc(Cl)c(OC2CCN(C(=O)CN3CCC(N4CCN(c5ccc6c(c5)C(=O)N(C5CCC(=O)NC5=O)C6=O)CC4)CC3)CC2)c1)[C@H]1CC[C@@H](c2ccnc3ccc(F)cc32)CC1 (some centres unmarked)
Which entry shows the lesser value of Kd here, A or B ? Use the label to indicate which entry you chose.
B
